Origin of measurements: paper PMC8305768

Test system: L. donovani strain BPK190 amastigotes
TEST_SUMMARY: Activity against L. donovani intramacrophage amastigotes (bone marrow-derived macrophages, qPCR)
Type: cell-based, Leishmania donovani
RUN_PARAMETERS: Leishmania donovani, Macrophage, infected bone marrow-derived macrophages, 48 h, read-out: Parassite Load Reduction (%)
QUANTITY: inhibition of growth at 5 µM (%)
Give bare numbers, in %.

See these solved cases before continuing.
{"COMPOUND": "C[N+](C)(C)CCOP(=O)([O-])OCCCCCn1cc(CCCCCCCCN)nn1 [Compound 35]", "ASSAYED_TARGET": "L. donovani strain BPK190 amastigotes", "inhibition of growth at 5 µM (%)": 69.1}
{"COMPOUND": "C[N+](C)(C)CCOP(=O)([O-])OCCCCCn1cc(CCCCCCCCNC(=O)OCc2ccccc2)nn1 [Compound 31]", "ASSAYED_TARGET": "L. donovani strain BPK190 amastigotes", "inhibition of growth at 5 µM (%)": 59.2}
{"COMPOUND": "C[N+](C)(C)CCCOP(=O)([O-])OCCCCCCCCCCCn1cc(CC2CCCCC2)nn1 [Compound 33]", "ASSAYED_TARGET": "L. donovani strain BPK190 amastigotes", "inhibition of growth at 5 µM (%)": 47.8}

Could you now consider this next compound?
Param item = C[N+](C)(C)CCOP(=O)([O-])OCCCCCCCCCCCn1cc(CCCCCCCCC(=O)O)nn1 [Compound 34] ; retrieve measured inhibition of growth at 5 µM.
43.8
